# Test system: Staphylococcus aureus
# measurement.protocol: Antimicrobial activity against Staphylococcus aureus
# Format: functional
Where a SMILES comes first, the peptide text is derived from it.
Rule for this label: class 1 means MIC is less than 9 µM; class 0 means MIC is at least 9 µM.

* N=C(N)NCCC[C@H](NC(=O)[C@H](Cc1c[nH]c2ccccc12)NC(=O)[C@H](CCCNC(=N)N)NC(=O)[C@H](Cc1c[nH]c2ccccc12)NC(=O)[C@H](CCCNC(=N)N)NC(=O)[C@H](Cc1c[nH]c2ccccc12)NC(=O)[C@H](CCCNC(=N)N)NC(=O)[C@H](Cc1c[nH]c2ccccc12)NC(=O)[C@@H](N)CCCNC(=N)N)C(=O)N[C@@H](Cc1c[nH]c2ccccc12)C(N)=O | class 1
* NC(=O)[C@H](Cc1c[nH]c2ccccc12)NC(=O)[C@H](CCCN=C(N)N)NC(=O)[C@@H](N)Cc1c[nH]c2ccccc12 (H-Trp-Arg-Trp-NH2) | class 0
* N=C(N)NCCC[C@H](NC(=O)[C@H](Cc1c[nH]c2ccccc12)NC(=O)[C@H](CCCNC(=N)N)NC(=O)[C@H](Cc1c[nH]c2ccccc12)NC(=O)[C@H](CCCNC(=N)N)NC(=O)[C@H](Cc1c[nH]c2ccccc12)NC(=O)[C@@H](N)CCCNC(=N)N)C(=O)N[C@@H](Cc1c[nH]c2ccccc12)C(N)=O (H-RWRWRWRW-NH2) | class 1
* N=C(N)NCCC[C@H](NC(=O)[C@H](Cc1c[nH]c2ccccc12)NCCCC[C@H](N[C@@H](Cc1c[nH]c2ccccc12)C(=O)N[C@@H](CCCNC(=N)N)C(=O)O)C(=O)NCCCC[C@H](NC(=O)[C@H](CCCCN[C@@H](Cc1c[nH]c2ccccc12)C(=O)N[C@@H](CCCNC(=N)N)C(=O)O)N[C@@H](Cc1c[nH]c2ccccc12)C(=O)N[C@@H](CCCNC(=N)N)C(=O)O)C(=O)NCCC(N)=O)C(=O)O | class 1
* CC[C@H](C)[C@H](NC(=O)[C@H](CCCCN)NC(=O)[C@@H](NC(=O)[C@H](CCC(N)=O)NC(=O)[C@@H](N)CCCNC(=N)N)[C@@H](C)CC)C(=O)N[C@@H](Cc1c[nH]c2ccccc12)C(=O)N[C@@H](Cc1ccccc1)C(=O)N[C@@H](CCC(N)=O)C(=O)N[C@@H](CC(N)=O)C(=O)N[C@@H](CCCNC(=N)N)C(=O)N[C@@H](CCCNC(=N)N)C(=O)N[C@@H](CCSC)C(=O)N[C@@H](CCCCN)C(=O)N[C@@H](Cc1c[nH]c2ccccc12)C(=O)N[C@@H](CCCCN)C(=O)N[C@@H](CCCCN)C(N)=O | class 1
* N=C(N)NCCC[C@H](NC(=O)[C@H](Cc1c[nH]c2ccccc12)NC(=O)[C@H](CCCNC(=N)N)NC(=O)[C@H](Cc1c[nH]c2ccccc12)NC(=O)[C@@H](N)CCCNC(=N)N)C(=O)N[C@@H](Cc1c[nH]c2ccccc12)C(N)=O (H-RWRWRW-NH2) | class 1

* * *

Item-by-item account of HC50
# measurement.protocol: in vitro
# measurement.context: red blood cells
measured.parameter: HC50 (µM)

• N=C(N)NCCC[C@H](NC(=O)[C@H](Cc1c[nH]c2ccccc12)NCCCC[C@H](N[C@@H](Cc1c[nH]c2ccccc12)C(=O)N[C@@H](CCCNC(=N)N)C(=O)O)C(=O)NCCCC[C@H](NC(=O)[C@H](CCCCN[C@@H](Cc1c[nH]c2ccccc12)C(=O)N[C@@H](CCCNC(=N)N)C(=O)O)N[C@@H](Cc1c[nH]c2ccccc12)C(=O)N[C@@H](CCCNC(=N)N)C(=O)O)C(=O)NCCC(N)=O)C(=O)O = 760
• CCCCCCCCCCCCCCCC(=O)N[C@@H](CCCCN)C(=O)N[C@@H](CCCCN)C(=O)N[C@@H](CCCCN)C(N)=O = 100
